Some compounds, each annotated with its measured growth.
Tested on: HT29 colon
Test Name: NCI-60 one-dose screen, 48 h (100 = growth as untreated, 0 = no growth, -100 = all killed)
Condition Set: 10 µM unless noted
The panel holds about 83,000 compounds, 20% with a hit somewhere; the sample as a whole holds those more often. Calls of active or inactive are those of the source. How the source made its calls: active means growth percent below 10; inactive means the rest.

Recorded growth, per entry:
- Smiles Representation: "O=C(O)c1nn(Cc2ccc(Cl)cc2)c2ccccc12"
  Observed Result: "118% (inactive)"
- Smiles Representation: "Oc1ccc2c3c1O[C@H]1c4[nH]c5ccccc5c4C[C@@]4(O)C(C2)N(CC2CC2)CC[C@]314"
  Observed Result: "83.9% (inactive)"
- Smiles Representation: "O=C1NC(=O)C(Cc2ccccc2)(Cc2ccccc2)C(=O)N1"
  Observed Result: "104% (inactive)"
- Smiles Representation: "COc1cc(NCCCCCN=C(N)N)c2ncccc2c1"
  Observed Result: "62.9% (inactive)"

Request: Please list growth recorded for the compound C[CH2][Pb]([CH2]C)([CH2]C)[O]C(=O)COC
Result: 0.481% (active)

====

This section presents molecules with their documented growth values.
System: HL-60(TB) leukemia
Test Name: NCI-60 one-dose screen, 48 h (100 = growth as untreated, 0 = no growth, -100 = all killed)
Condition Set: 10 µM unless noted
This is part of a sample that, as a whole, favours compounds with a hit. Of some 83,000 tested, about 20% had one in any assay. Active and inactive are the calls of the source. Rule for the calls: active = growth percent below 10; inactive = the rest.

Record excerpt, results attached:
- Molecule: "C=C(C)[C@@H]1CC[C@]2(C(=O)N3CCN(C)CC3)CC[C@]3(C)[C@H](CC[C@@H]4[C@@]5(C)C/C(=C/c6ccncc6)[C@H](O)C(C)(C)[C@@H]5CC[C@]43C)[C@@H]12"
  Target Entity: "HL-60(TB) leukemia"
  growth: "-25.2% [100 µM] (active)"
- Molecule: "NC(=O)NCC1CCCCC1"
  Target Entity: "HL-60(TB) leukemia"
  growth: "91.3% (inactive)"

Request: Name the recorded growth of the item COc1ccccc1NC(=O)c1cc2cc(Br)ccc2cc1O in your answer.
Result: -33.7% (active)

Request: Annotate the molecule COc1ccc(-c2cn[nH]c2-c2cc(OC)c3c(c2)OCCO3)cc1 with its measured growth.
Result: -33.2% (active)

Request: Please list growth recorded for the molecule Nc1nc2c(c3ncccc13)C(c1ccccc1)Cc1ncccc1-2 (configuration not stated)
Result: 65.9% (inactive)

====

Tested on: HL-60(TB) leukemia
Test Name: NCI-60 one-dose screen, 48 h (100 = growth as untreated, 0 = no growth, -100 = all killed)
Condition Set: 10 µM unless noted
This is part of a sample that, as a whole, favours compounds with a hit. Of some 83,000 tested, about 20% had one in any assay.
Label rule, in plain words: growth of 90% and up is Met, under 90% is Not met.

Consider the following illustrative entries.
- Compound: "Clc1cccc(Nc2nc(Nc3cnc4ccccc4c3)c3[nH]cnc3n2)c1"
  Assigned Class: "Met"
- Compound: "CC(=O)OC(c1ccccc1)C1CCOC1=O (stereo not given)"
  Assigned Class: "Met"
- Compound: "COC1=CC(c2ccc[nH]2)=N/C1=C\\c1[nH]c(C)c(C(=O)Oc2ccccc2)c1C"
  Assigned Class: "Not met"

Let's switch to this compound now.
Request: Hi team, for NC(=S)Nc1ccc2c(c1)Cc1ccccc1-2 , is the recorded growth at or above 90%?
Result: Not met
